Reported values of combination Emax for individual entries
- System: CFPAC-1 (Pancreatic Carcinoma)
- ASSAY: combination Emax (second highest fraction inhibited in the dose matrix, 72 h); higher = more inhibition; extreme values may be limits of the assay
Please reply with the number alone, leaving off any unit.

Solved entries:
MOLECULE: Cc1c2c(nn1C)CSCc1cc(n(C)n1)CSc1cc(c3ccccc3c1)OCCCc1c(C(=O)O)n(C)c3c-2c(Cl)ccc13 [AZD5991] + C1CN(CCC1(C(=O)N[C@@H](CCO)C2=CC=C(C=C2)Cl)N)C3=NC=NC4=C3C=CN4 [Capivasertib] (first compound max 1 µM, 7x7, partner max 3 µM)
ASSAY METRIC: combination Emax
DATA VALUE: 0.2
//
MOLECULE: Cc1c2c(nn1C)CSCc1cc(n(C)n1)CSc1cc(c3ccccc3c1)OCCCc1c(C(=O)O)n(C)c3c-2c(Cl)ccc13 [AZD5991] + CC1(C)CCC(CN2CCN(c3ccc(C(=O)NS(=O)(=O)c4ccc(NCC5CCOCC5)c([N+](=O)[O-])c4)c(Oc4cnc5[nH]ccc5c4)c3)CC2)=C(c2ccc(Cl)cc2)C1 [Venetoclax] (first compound max 1 µM, 7x7, partner max 1 µM)
ASSAY METRIC: combination Emax
DATA VALUE: 0.143
//
MOLECULE: CC(=O)c1c(C)c2cnc(Nc3ccc(N4CCNCC4)cn3)nc2n(C2CCCC2)c1=O [Palbociclib] + Cc1c2c(nn1C)CSCc1cc(n(C)n1)CSc1cc(c3ccccc3c1)OCCCc1c(C(=O)O)n(C)c3c-2c(Cl)ccc13 [AZD5991] (first compound max 10 µM, 7x7, partner max 1 µM)
ASSAY METRIC: combination Emax
DATA VALUE: 0.375

Turning now to a further molecule:
Assign combination Emax to the following record: Cc1cc2ncnn2cc1Nc1ncc2c(n1)n(C1CCOCC1)c(=O)n2C [AZD7648] + C=CCn1c(=O)c2cnc(Nc3ccc(N4CCN(C)CC4)cc3)nc2n1-c1cccc(C(C)(C)O)n1 [AZD1775] (first compound max 10 µM, partner max 1 µM) 0.444
